# assay_summary: Mouse terminal IV PK study
# Type: in vivo
# test_settings: mouse, 2 mg/kg, male CD1 mice, plasma
recorded_endpoint: AUC

Problem: What AUC value was documented for this molecule, O=C1/C(=C/c2cccc(Br)c2)CN(Cc2ccccc2)C/C1=C\c1cccc(Br)c1 ?
Result: 13300 ng·h/mL

---

# assay_summary: Mouse terminal IP PK study
# Format: in vivo, male CD1 mice
# test_settings: mouse; ip, 2 mg/kg, male CD1 mice, plasma
recorded_endpoint: AUC

Problem: Recorded AUC for O=C1/C(=C/c2cccc(Br)c2)CN(Cc2ccccc2)C/C1=C\c1cccc(Br)c1 , please?
Result: 18400 ng·h/mL

Origin of the recorded values: patent US20190284635A1
